Tested on: tissue of the pancreatic islets of Langerhans
assayExplanation: Insulin secretion from cultured tissue of the pancreatic islets of Langerhans (ELISA), as index of mitochondria-activating activity / ATP production
Assay type: cell-based, rat
setupConditions: addition amount of 0.1 μg/ml, versus control
List of increase of the concentration of insulin in the medium values.
Respond with the bare value in fold.

Solved entries (count: 3):
{"compound": "O=C(O)CC(O)(CC(=O)O)C(=O)O [citric acid]", "number": 47}
{"compound": "O=C(O)c1cc(C(=O)O)c2c(n1)C(=O)C(=O)c1cc(C(=O)O)[nH]c1-2 [pyrroloquinoline quinone]", "number": 5.1}
{"compound": "COc1c(O)c(C)c(C/C=C(\\C)CC/C=C(\\C)CC/C=C(\\C)CC/C=C(\\C)CC/C=C(\\C)CC/C=C(\\C)CC/C=C(\\C)CC/C=C(\\C)CC/C=C(\\C)CCC=C(C)C)c(O)c1OC [reduced coenzyme Q10]", "number": 8.3}

For record COC1=C(OC)C(=O)C(C/C=C(\C)CC/C=C(\C)CC/C=C(\C)CC/C=C(\C)CC/C=C(\C)CC/C=C(\C)CC/C=C(\C)CC/C=C(\C)CC/C=C(\C)CCC=C(C)C)=C(C)C1=O [oxidized coenzyme Q10, reference compound] the listed increase of the concentration of insulin in the medium is 7.7

The measurements presented in this section are drawn from patent US20070259908A1.
